- TESTED ON: human SIRPα v2 expressed on cells (CHOK1 stable line KYinno KC-1720) (human) (UniProt P78324)
- TEST: FACS, CHOK1-hSIRPα v2 cells
RECORDED ENDPOINT: TOP MFI (MFI)
Respond with the bare value in MFI.

>  <BINDER>
071c (antibody, V domains shown) VH: QIQLVQSGPELKKPGETVKISCKASGYTFTTYGMSWVKQAPGKGLKWMVWINTYSGVPTYADDFQGRFAFSLETSASTSYLQINNLRNEDTATYFCARDPHYYGTSPAWFAYWGQGTLVTVSA VL: DIVMTQSQKFMSTTIGDRVIITCKASQIVGIAVAWYQQKPGQSPKLLIYSASNRFTGVPDRFTGSGSGTDFTLTISNMQSEDLADYFCQQYSTYPFTFGSGTKLEIK

>  <TOP MFI [MFI]>
46700

$$$$
>  <BINDER>
015c (antibody, V domains shown) VH: EVQLQQSGVEVVQPGASVKLSCTASGFNIEAYYMHWVKQRTEQGLEWIGRIDPEDGESKYAPKFQGKATMTADTSSSTAYLQLSSLTSDDTAVYYCVRGSYEYWGQGTTLTVSS VL: QIVLTQSPAIMSASPGEKVTLTCSASSSVSSSYLYWYQQKPGSSPKLWIYSTSNLASGVPPRFSGSGSGTSYSLTISSMQAEDAASYFCYQWSSYPYTFGGGTKLEIK

>  <TOP MFI [MFI]>
50100

$$$$
>  <BINDER>
005c (antibody, V domains shown) VH: EVKLVESGGGLVQPGGSLSLSCAASGFTFTDYYMSWVRQPPGKALEWLGFIKNEANGYTTESSASVKGRFTISRDNSQSILYLQMNALRAEDSATYYCARYDYYGSNYNWYFDAWGTGTTVTVSS VL: DIVMTQSQKFMSPSVGDRVSITCKASQNVRTAVAWYQQKPGQSPKVLIHLASKRHTGVPDRFTGSGSGTDFTLTISNVQSEDLADYFCLQHWIHPLTFGAGTKLELK

>  <TOP MFI [MFI]>
53300

$$$$

Now let's try a different one.
Can you look up the measured TOP MFI of 025c (antibody, V domains shown) VH: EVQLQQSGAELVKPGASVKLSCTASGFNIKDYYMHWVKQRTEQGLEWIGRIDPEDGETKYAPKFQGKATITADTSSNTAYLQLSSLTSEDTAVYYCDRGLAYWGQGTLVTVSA VL: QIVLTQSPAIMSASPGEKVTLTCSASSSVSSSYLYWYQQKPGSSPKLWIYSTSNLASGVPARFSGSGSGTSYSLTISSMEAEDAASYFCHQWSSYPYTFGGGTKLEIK for me?
51600
